Data provenance is patent US20230390235A1.

# Assay Protocol: Pharmacokinetic (PK) measurement of SNJ-1945, oral, rats, LC/MS/MS
# Type: in vivo
# Conditions Used: male, S.D.; rat plasma, single oral dose 3 mg/kg
Assay Readout: Cmax (ng/mL)
Answer format: numeric, ng/mL implied, no suffix.

May I ask what Cmax has been recorded for "COCCOCCOC(=O)N[C@@H](CC(C)C)C(=O)N[C@@H](Cc1ccccc1)C(=O)C(=O)NC1CC1" ? 391

###

# Assay Protocol: Pharmacokinetic (PK) measurement of SNJ-1945, oral, rats, LC/MS/MS
# Type: in vivo
# Conditions Used: male, S.D.; rat plasma, single oral dose 10 mg/kg; read-out: AUC0-8
Assay Readout: AUC(0-t) (ng·h/mL)
Answer format: numeric, ng·h/mL implied, no suffix.

May I ask what AUC(0-t) has been recorded for "COCCOCCOC(=O)N[C@@H](CC(C)C)C(=O)N[C@@H](Cc1ccccc1)C(=O)C(=O)NC1CC1" ? 691

###

# Assay Protocol: Pharmacokinetic (PK) measurement of SNJ-1945, oral, rats, LC/MS/MS
# Format: in vivo
# Conditions Used: male, S.D.; rat plasma, single oral dose 3 mg/kg; read-out: AUC0-8
Assay Readout: AUC(0-t) (ng·h/mL)
Answer format: numeric, ng·h/mL implied, no suffix.

May I ask what AUC(0-t) has been recorded for "COCCOCCOC(=O)N[C@@H](CC(C)C)C(=O)N[C@@H](Cc1ccccc1)C(=O)C(=O)NC1CC1" ? 380

###

# Assay Protocol: Pharmacokinetic (PK) measurement of SNJ-1945, oral, rats, LC/MS/MS
# Assay type: in vivo
# Conditions Used: male, S.D.; rat plasma, single oral dose 30 mg/kg; read-out: AUC0-8
Assay Readout: AUC(0-t) (ng·h/mL)
Answer format: numeric, ng·h/mL implied, no suffix.

May I ask what AUC(0-t) has been recorded for "COCCOCCOC(=O)N[C@@H](CC(C)C)C(=O)N[C@@H](Cc1ccccc1)C(=O)C(=O)NC1CC1" ? 1170

###

# Assay Protocol: in vivo
# Set-up: species or system S.D. rats
# Conditions Used: male, S.D., rat, po, 500 mg/kg
Assay Readout: Cmax (µg/mL)
Answer format: numeric, µg/mL implied, no suffix.

May I ask what Cmax has been recorded for CC(C)C[C@@H](C=O)NC(=O)[C@@H](NS(=O)(=O)c1ccc(F)cc1)C(C)C [SJA-6017] ? 0.348

###

# Assay Protocol: Pharmacokinetic (PK) measurement of SNJ-1945, oral, rats, LC/MS/MS
# Assay type: in vivo
# Conditions Used: male, S.D.; rat plasma, single oral dose 30 mg/kg
Assay Readout: Cmax (ng/mL)
Answer format: numeric, ng/mL implied, no suffix.

May I ask what Cmax has been recorded for "COCCOCCOC(=O)N[C@@H](CC(C)C)C(=O)N[C@@H](Cc1ccccc1)C(=O)C(=O)NC1CC1" ? 821

###

# Assay Protocol: Pharmacokinetic (PK) measurement of SNJ-1945, oral, rats, LC/MS/MS
# Assay type: in vivo
# Conditions Used: male, S.D.; rat plasma, single oral dose 10 mg/kg
Assay Readout: Cmax
Answer shape: numeric part, then the unit.

May I ask what Cmax has been recorded for "COCCOCCOC(=O)N[C@@H](CC(C)C)C(=O)N[C@@H](Cc1ccccc1)C(=O)C(=O)NC1CC1" ? 553 ng/mL

###

# Assay Protocol: in vivo
# Set-up: species or system S.D. rats
# Conditions Used: male, S.D., rat, po, 100 mg/kg
Assay Readout: AUC(0-t) (ng·h/mL)
Answer format: numeric, ng·h/mL implied, no suffix.

May I ask what AUC(0-t) has been recorded for "CC(C)C[C@@H](C=O)NC(=O)[C@@H](NS(=O)(=O)c1ccc(F)cc1)C(C)C" ? 679

###

# Assay Protocol: in vivo
# Parameters: species or system S.D. rats
# Conditions Used: male, S.D., rat, po, 500 mg/kg
Assay Readout: AUC(0-t) (ng·h/mL)
Answer format: numeric, ng·h/mL implied, no suffix.

May I ask what AUC(0-t) has been recorded for "CC(C)C[C@@H](C=O)NC(=O)[C@@H](NS(=O)(=O)c1ccc(F)cc1)C(C)C" ? 1840
